// data source = ChEMBL document CHEMBL1201862

System: SN12C
assay explanation: NCI tumour cell line growth inhibition, 48 h
Activity calls are given as the source filed them. Cut-off read from the data, not from the text of the source: active = GI50 up to about 1.1 µM and inactive = higher.
# GI50 per record follows

Some solved entries appear below for comparison.
> print(dat)
                                   molecule       reported.value
1  CN(C)CCCN1c2ccc([N+](=O)[O-])cc2CCc2cc([N+](=O)[O-])ccc21     15 µM (inactive)
2  O=C1Nc2ccc(Br)cc2/C1=N/Nc1ccc([N+](=O)[O-])cc1   19.3 µM (inactive)
3  COc1cccc2cc(C(=O)NC34CC5CC(CC(C5)C3)C4)c(=N)oc12  > 100 µM (inactive)

Consider CCOC(=O)c1ccc(NCc2ccc3nc(OC)c(OC)nc3c2)cc1 . Its measured GI50 is > 100 µM (inactive)

Consider CS(=O)(=O)c1nc(-c2cc3c(c(S(C)(=O)=O)n2)CCCC3)cc2c1CCCCC2 . Its measured GI50 is > 100 µM (inactive)

* * *

System: UACC-62
assay explanation: NCI tumour cell line growth inhibition, 48 h
Active and inactive are the calls of the source. Rule as the data show it: active = GI50 up to about 1.1 µM and inactive = higher.
# GI50 per record follows

Some solved entries appear below for comparison.
> print(dat)
                                   compound       reported.value
1               COC(=O)c1c2c(cc3c1CCC3)CCC2   51.1 µM (inactive)
2  Cc1cc(S(=O)(=O)NC2=Nc3cccc(F)c3CN2)c(S)cc1Cl   62.1 µM (inactive)
3  COc1cccc2cc(C(=O)NC34CC5CC(CC(C5)C3)C4)c(=N)oc12  > 100 µM (inactive)
4            CO/N=C(\C)CCC#Cc1ccccc1C(=O)OC   > 10 µM (inactive)
5  CC1(c2cccc(Cl)c2)CC(c2cccc(Cl)c2)=C(C#N)C(=C(C#N)C#N)N1 (stereo unspecified)     17 µM (inactive)

Consider CCSCCCC(=O)O . Its measured GI50 is > 100 µM (inactive)

* * *

Tested on: NCI-H226
assay explanation: NCI tumour cell line growth inhibition, 48 h
Active and inactive are the calls of the source. Rule as the data show it: active = GI50 up to about 1.1 µM and inactive = higher.
Just give me one of these, please: active, inactive

Would you please look over these solved cases?
molecule	group label
COC(=O)[C@@]1(C)CCC[C@]2(C(=O)O)C3Cc4occc4[C@H](C)[C@@H]3CCC21 (some centres undefined)	inactive
O=C(O)CCSCCCN1C(=O)c2ccccc2C1=O	inactive
CC(C)(Cl)C(Br)CC/C(CBr)=C(/Cl)CCl.CC(C)(Cl)C(Br)CC/C(CBr)=C(\Cl)CCl (centres undefined)	active

Q) For this molecule, state the assay outcome: COC(=O)c1c2c(cc3c1CCC3)CCC2
A) inactive

Q) For this molecule, state the assay outcome: COC(=O)C1=C(C)NC(C)=C(C(=O)OC)C1c1ccccc1NO
A) inactive

Q) For this molecule, state the assay outcome: CCN(CC)C(=S)SS(=O)(=O)c1ccc(NC(C)=O)cc1
A) inactive

Q) For this molecule, state the assay outcome: COc1ccccc1CNCCCCCNCCCCCCCCCCNCCCCCNCc1ccccc1OC
A) inactive

Q) For this molecule, state the assay outcome: COC(OC)C1(c2ccccc2)Oc2ccccc2C1=O (centres undefined)
A) inactive

Q) For this molecule, state the assay outcome: COc1ccc(C(=O)C(c2ccc(OC)cc2)C2C(=O)Oc3ccccc32)cc1 (centres undefined)
A) inactive

Q) For this molecule, state the assay outcome: Cc1cn(C2CC(/[N+]([O-])=N\Nc3ccc([N+](=O)[O-])cc3)C(CO)O2)c(=O)[nH]c1=O (centres undefined)
A) inactive

Q) For this molecule, state the assay outcome: COc1ccccc1NC(=O)C(=O)C(c1cnc2ccc([N+](=O)[O-])cc2n1)[N+](=O)[O-] (centres undefined)
A) inactive

* * *

Test system: PC-3
assay explanation: NCI tumour cell line growth inhibition, 48 h
Where a name gives a salt, the structure may show the parent alone. Activity calls are given as the source filed them. No stated cut-off is given here; in the data, active = GI50 up to about 1.1 µM and inactive = higher.
# GI50 per record follows

> print(dat)
                                    compound       reported.value
 1  C#C[C@]1(O)CC[C@H]2[C@@H]3CCC4=C/C(=N/NC(=O)c5cccc6cc7ccccc7nc56)CC[C@@H]4[C@H]3CC[C@@]21CC   62.2 µM (inactive)
 2  CCOC(=O)C1c2[nH]c3ccccc3c2CCN1C(=O)c1ccc(OC)o1 (stereo unspecified)   > 10 µM (inactive)
 3  FC1(F)[Se]C2C3CCC(C3)C2C1(F)F (stereo unspecified)  > 100 µM (inactive)
 4         CN(CC(=O)Nc1ccccc1C(=O)O)c1ccccc1  > 100 µM (inactive)
 5          c1ccc2c3c(c(N4CCOCC4)nc2c1)CCCC3   36.6 µM (inactive)
 6  Cc1ccc(/C=C2/N/C(=N\N=C/c3ccccc3)NC2=O)cc1   48.5 µM (inactive)
 7  N=C(N)c1ccc(-c2ccc(-c3ccc(C(=N)N)cc3)o2)cc1 [FURAMIDINE HYDROCHLORIDE]   39.5 µM (inactive)
 8  CCOC(=O)c1ccc2nc(-c3ccc(S(=O)(=O)F)cc3)cc(O)c2c1   50.6 µM (inactive)
 9        Cc1c(NC(=S)NN)c(=O)n(-c2ccccc2)n1C  > 100 µM (inactive)
10  CC(C)=CCC[C@@H](C)C1=C(O)C(=O)C(C)=C(Nc2ccccc2Cl)C1=O   18.5 µM (inactive)

Consider Cc1cc(C#N)c(Nc2c(C)cccc2[N+](=O)[O-])s1 . Its measured GI50 is 17.3 µM (inactive)

Consider COC(=O)C(COC(C)=O)NC(=O)/C=C/c1ccc(O)c(OC(C)=O)c1 (stereo unspecified) . Its measured GI50 is 99.1 µM (inactive)

Consider O=C(/C=C1\C[C@H]2C=Nc3ccccc3C(=O)N2C1)NCCCCCNC(=O)/C=C1\C[C@H]2C=Nc3ccccc3C(=O)N2C1 . Its measured GI50 is 13.8 µM (inactive)

Consider O=C(CN1CCCCC1)c1ccc2c(c1)Sc1ccccc1O2 . Its measured GI50 is 11.6 µM (inactive)

Consider O=C1NC(N2CCCCC2)=N/C1=C\c1ccccc1 . Its measured GI50 is > 100 µM (inactive)

Consider Cn1c2c(c3c(=O)[nH]ncc31)Cc1ccccc1-2 . Its measured GI50 is 21.5 µM (inactive)

Consider O=Cc1ccc2[nH]c(=O)oc2c1 . Its measured GI50 is > 100 µM (inactive)

Consider C/C=C1\CC(C(=O)OCC)CCCCCCC1=O (stereo unspecified) . Its measured GI50 is > 100 µM (inactive)

* * *

# GI50 per record follows
System: T47D
assay explanation: NCI tumour cell line growth inhibition, 48 h
Calls of active or inactive are those of the source. No stated cut-off is given here; in the data, active = GI50 up to about 1.1 µM and inactive = higher.

Some solved entries appear below for comparison.
compound	measured on	GI50
NS(=O)(=O)c1ccc(/C=C/c2ccc(O)cc2)cc1	T47D	21.1 µM (inactive)
C/C(=N\NC(=S)N1CCN(C)CC1)c1nc2cccnc2[nH]1	T47D	52.1 µM (inactive)
COCN1C(=O)[C@@H]2CCCN2C(=O)c2cc(OC)c(Cc3ccccc3)cc21	T47D	43.3 µM (inactive)
CC(C)COP(C)(=O)C(N)(C(F)(F)F)C(F)(F)F (centres undefined)	T47D	> 100 µM (inactive)
O=C1NCC2(CCNCC2)N1	T47D	> 100 µM (inactive)

Consider O=C(O)CNn1c(SCC(=O)O)nnc(/C=C/c2c(O)ccc3ccccc23)c1=O . Its measured GI50 is 19.5 µM (inactive)

Consider Cc1cc(S(=O)(=O)NC2=Nc3cccc(F)c3CN2)c(S)cc1Cl . Its measured GI50 is 28.1 µM (inactive)

Consider Cc1ccc(S(=O)(=O)NC(=O)Nc2ccc(C(=O)O)cc2)cc1 . Its measured GI50 is > 100 µM (inactive)

* * *

Tested on: SW-620
assay explanation: NCI tumour cell line growth inhibition, 48 h
Active and inactive are the calls of the source. Cut-off read from the data, not from the text of the source: active = GI50 up to about 1.1 µM and inactive = higher.
Just give me one of these, please: Y (active), N (inactive)

Would you please look over these solved cases?
> print(dat)
                                   compound  measured.on  group.label
1  C=C1CC(COc2ccc3c(C)c(Cl)c(=O)oc3c2)(c2ccccc2)OC1=O (stereo unspecified)       SW-620            Y
2    Cc1ccc(NC(=O)/C(C#N)=C/c2ccccc2)c(C)c1       SW-620            N
3  Cc1ccc(C(=O)/C(C#N)=C/Nc2c(C)n(C)n(-c3ccccc3)c2=O)cc1       SW-620            N
4  O=C1NC2C=CN(Cc3ccccc3)C=C2C(=O)N2CCCC12 (stereo unspecified)       SW-620            N
5    Clc1ccc(-c2nc(-c3ccc(Cl)cc3)[s+]s2)cc1       SW-620            N

Note: attention shifts to another entry.
Q) For this compound, state the assay outcome: COc1ccccc1NC(=O)C(C#N)=C(SC)SC
A) N
